This section presents compounds with their documented pIC50 values.
protocol_notes: Antagonist activity at CCR2 in human THP1 cells assessed as inhibition of MCP1-induced chemotaxis after 3 hrs
In textbook form, pIC50 equals minus log to base ten of the concentration in mol/L.

In the examples that follow, each entry is paired with its recorded pIC50.
O=C(CNC(=O)c1cccc(C(F)(F)F)c1)NC1CN([C@H]2CC[C@H](c3ccc(C(=O)O)cc3)CC2)C1 = 5.89
O=C(CNC(=O)c1cccc(C(F)(F)F)c1)NC1CN([C@H]2CC[C@H](c3ccc(O)cn3)CC2)C1 = 7.85
COc1ccc([C@]2(O)CC[C@@H](N3CC(NC(=O)CNC(=O)c4cccc(C(F)(F)F)c4)C3)CC2)cc1 = 7.17

API: the following record is the query input.
Task item: Read the entry `COc1cc([C@H]2CC[C@H](N3CC(NC(=O)CNC(=O)c4cccc(C(F)(F)F)c4)C3)CC2)ccn1` and write its reported pIC50.
Reply: 6.77

Hello, the source for this data is BindingDB's records for doi:10.1016/j.bmcl.2011.06.080, in case you need it.
